# EXPERIMENTAL_TARGET: full-length beta-Catenin (Uniprot ID P35222) (Homo sapiens (Human)) (UniProt P35222)
# Sequence (P35222 2-781 limits assumed): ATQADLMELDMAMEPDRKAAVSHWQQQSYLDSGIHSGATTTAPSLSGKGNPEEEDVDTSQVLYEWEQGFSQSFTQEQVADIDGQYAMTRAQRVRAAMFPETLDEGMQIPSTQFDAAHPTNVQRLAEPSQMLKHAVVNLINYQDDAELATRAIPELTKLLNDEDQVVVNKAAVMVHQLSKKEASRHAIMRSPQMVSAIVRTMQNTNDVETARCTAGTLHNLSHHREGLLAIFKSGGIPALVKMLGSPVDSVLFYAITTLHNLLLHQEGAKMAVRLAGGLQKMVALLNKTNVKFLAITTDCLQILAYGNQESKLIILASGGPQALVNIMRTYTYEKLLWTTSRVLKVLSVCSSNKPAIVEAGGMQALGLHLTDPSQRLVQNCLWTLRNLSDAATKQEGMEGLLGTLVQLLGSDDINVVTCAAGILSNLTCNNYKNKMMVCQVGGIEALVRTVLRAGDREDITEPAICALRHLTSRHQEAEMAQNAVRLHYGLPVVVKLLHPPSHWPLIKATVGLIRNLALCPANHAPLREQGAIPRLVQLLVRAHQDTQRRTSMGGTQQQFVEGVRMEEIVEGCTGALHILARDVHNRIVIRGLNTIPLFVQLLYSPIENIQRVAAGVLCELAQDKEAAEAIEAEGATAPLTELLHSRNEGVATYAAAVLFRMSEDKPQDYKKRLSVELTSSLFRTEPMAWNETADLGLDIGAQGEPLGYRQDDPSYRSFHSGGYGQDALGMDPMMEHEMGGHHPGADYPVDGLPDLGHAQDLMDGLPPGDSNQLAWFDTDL
# EXPERIMENTAL_PROTOCOL: fluorescence polarization competition; 10 nM full-length beta-catenin + 10 nM 5FAM-TCF4(10-53) probe, peptide titrated
Starred links: 1 amine or outer side, 2 acyl side, 3 side chain; linkers in the order of their positions; H or OH if unused. Positions of bridges follow the written chain, without caps; N, C: chain ends. Non-standard residues stand in square brackets, D forms with d. Primed or numbered codes have the meaning given here. B5(4) = 2,2-bis(4-pentenyl)glycine = 2-amino-2-(pent-4-en-1-yl)hept-6-enoic acid (stitching residue), C=CCCCC(CCCC=C)(N[*:1])C(=O)[*:2]; B5(3) = 2,2-bis(4-pentenyl)glycine (stitching residue), C=CCCCC(CCCC=C)(N[*:1])C(=O)[*:2]; Ala(1H-tetrazol-5-yl) = N[C@@H](Cc1nnn[nH]1)C(=O)O; Phe(3-F) = N[C@@H](Cc1cccc(F)c1)C(=O)O; Bta = N[C@@H](Cc1csc2ccccc12)C(=O)O; αAllylPro = C=CC[C@@]1(C(=O)O)CCCN1; 2Thi = N[C@@H](Cc1cccs1)C(=O)O; 3Thi = N[C@@H](Cc1ccsc1)C(=O)O; S8 = C=CCCCCCC[C@](C)(N)C(=O)O
QUANTITY_KIND: EC50 (nM)

Example entries begin here.
BINDER | READOUT_UNITS | EC50
Ac-[αAllylPro]DI[B5(3)]DEAAFQ[S8]F[Bta]-NH2 (staple 1-4, 4-11; also: staple isomer composition, earlier eluting HPLC peak) [I-408] | nM | 120
Ac-[αAllylPro]DA[B5(4)]DEAA[2Thi]Q[S8][Phe(3-F)][Bta]Q-NH2 (staple 1-4, 4-11) [I-401] | nM | 134

[I] Ac-[αAllylPro]DA[B5(3)]DEAAFQ[S8][3Thi][Bta]Q-NH2 (staple 1-4, 4-11; also: staple isomer composition, earlier eluting HPLC peak) [I-426]
[II] Ac-[αAllylPro][Ala(1H-tetrazol-5-yl)]A[B5(3)]DEAAFQ[S8]F[Bta]Q-NH2 (staple 1-4, 4-11; also: staple isomer composition, later eluting HPLC peak) [I-417]
# input // compare: I vs II , metric EC50, want the smaller When you have decided, please share the label of that item.
# output I
(I: 109 nM, II: 5000 nM)
